test: purified protein yield per well (BCA); higher = higher soluble expression
recorded metric: purified protein yield per well

MTVPPGNGFNGGKIYYPTDTSLGTWAAVAAVPGYTARWDAEGAWMGPWLASFGFVVIGIDTNSPTDYDTARGTQLLAALDYLTQKSPVRDRVDPNRLGVLGHSMGGGGAISAAERRPSLKAALPLAPFSPSQNLSSLRVPTMIMGARDDGTVTPSYLNGLYGSMPTATQSAYIELTSGGHGFPTWGNSNVTRRTIPWLKIFLDNDTRYTQFLCPSLADSSGISRSQTKCPYVPPGGTTTPPSGGQIVGAGSGRCLDVPNASQTNGAQVQLWDCSGNVNQKWARTDAGELRVYGSKCLDAEGSGTSPGTRVIVWDCHGGQNQRWNVNTNGTITSVGSGLCLDTNGGGTGNGAQTVLGNCNGAPTQRWTVR [ESM105]	< 25 µg

Q: Determine its reported purified protein yield per well: GPFAVSSVTVPAGSGPGFNDGTIYYPTDTSQGTFGAVVIMPGFVAVQGQIAWYGPRLASQGFVVMTMDSNALWDFPSDRSRQQLAALNYLTTKSPVKSRIDPNRLALMGWSMGGGGTLESAAANPSLKAAIPLAPWDITNPGDQISVPTMIFGADGDTVAPVSTFTRPAYDALTNTHDKAFVELKGADHFTFASPNTTVAKYSISWLKRFVDNDTRYDQFLCPIPN [TEP056]
A: < 25 µg

Q: Determine its reported purified protein yield per well: APVAVAPAAVPVHGVDPTDANLRQPVGDLAFSQVTIADSQTPGFGAATIYYPDDTTHGTYGGVAVVPGYTSPQSAVAWLGPRLASRGFVVITIATNSIYDQPTTRGRELLSALDYLTTSSPAAVRQRLDPQRLAVMGHSMGGGGALYAVSQRTTIKAAVPLAPYNQDKTWQTVKTPTMLMAGSADNVAGIGTFSRPFYRSMTGARERALVNVQGADHGTFVRENATIGKYATAWLKRFVDEDTRYDQFLCPAPTGDGLTEYTASCPNA [DP012]
A: < 25 µg
